For each of the compounds below, state its relative viability.
- System: 621-103 (TSC2-rescued);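 further: immortalized renal angiomyolipoma cells stably carrying empty vector or TSC2, dosed in 384-well plates in DMEM, viability normalized to vehicle-treated wells within each plate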
- Assay: relative viability vs DMSO; higher = less cytotoxic
- Stated Conditions: 0.1 µM; serum: 10% FBS; 72 h
Structures can show the parent of a compound that is named as a salt.
# value in %; strip the unit string

Form field: reported relative viability of Cc1cc(C(C)(C)C)c(O)c(C)c1CC1=NCCN1 [Oxymetazoline HCl]
98.5

Form field: reported relative viability of `O=C1c2ccccc2C(=O)c2c1ccc(O)c2O`
99.9

Form field: reported relative viability of `Cc1csc(-c2nnc(Nc3ccc(Oc4ncccc4-c4ccnc(N)n4)cc3)c3ccccc23)c1`
77.7

Form field: reported relative viability of CC(NCCc1ccc(O)cc1)C(O)c1ccc(O)cc1 (stereo not drawn) [Ritodrine HCl]
98.2

Form field: reported relative viability of `Nc1ccccc1NC(=O)c1ccc(CNc2nccc(-c3cccnc3)n2)cc1`
93.1

Form field: reported relative viability of `C#Cc1cccc(Nc2ncnc3cc(OCCOC)c(OCCOC)cc23)c1`
101

Form field: reported relative viability of CN(C)C(=O)C(CCN1CCC(O)(c2ccc(Cl)cc2)CC1)(c1ccccc1)c1ccccc1 [Loperamide HCl]
98.2

Form field: reported relative viability of CC(=O)SCC(Cc1ccccc1)C(=O)NCC(=O)OCc1ccccc1 (stereo not drawn)
101

Form field: reported relative viability of CCOC(=O)[C@H](CCc1ccccc1)N[C@@H](C)C(=O)N1CCC[C@H]1C(=O)O [Enalapril Maleate]
100

Form field: reported relative viability of `O=C1NC(=O)/C(=C\c2ccc3nccnc3c2)S1`
100

Form field: reported relative viability of `CO[C@H]1/C=C\C=C(/C)C(=O)NC2=CC(=O)C(NCCN(C)C)=C(C[C@@H](C)C[C@H](OC)[C@H](O)[C@@H](C)/C=C(\C)[C@@H]1OC(N)=O)C2=O`
5.29

Form field: reported relative viability of `COCC[n+]1c2c(n(Cc3cnccn3)c1C)C(=O)c1ccccc1C2=O`
3.13

Form field: reported relative viability of `NC(=O)[C@@H](CCC(F)(F)F)N(Cc1ccc(-c2ncon2)cc1F)S(=O)(=O)c1ccc(Cl)cc1`
103
